Reported pIC50 on Epidermal growth factor receptor (Homo sapiens) for assorted compounds, compiled from publications.
pIC50: −log10 of the molar value.
property.measured: pIC50

{"columns": ["structure.smiles.string", "target", "quantitative.result"],
 "data": [
  ["CN/N=C/c1c(N)ncnc1Nc1ccc2c(cnn2Cc2cccc(F)c2)c1", "Epidermal growth factor receptor (Homo sapiens)", 7.92],
  ["O=C(Nc1ccc(F)cc1)Nc1ncnc2nn3ccccc3c12", "Epidermal growth factor receptor (Homo sapiens)", 5.00]
]}

1. CCOc1cc2nc(CC)nc(Nc3cccc(-c4csc(C)n4)c3)c2cc1OCC
2. N#CCc1c(SSc2[nH]c3ccccc3c2CC#N)[nH]c2ccccc12
// compare: 1 vs 2 , metric pIC50, want the smaller # reply format: chosen label
2
(2: 4.49, 1: 5.03)
